Source of measurements: ChEMBL document CHEMBL1811905

tested on: J774; assay: Cytotoxicity against mouse J774 cells assessed as reduction in cell viability at 100 ug/ml after 24 hrs by resazurin-based colorimetric assay; conditions: j774, 24 h
Record form. Attribute: Activity. Fill in for each entry.
Give bare numbers, in %.

> print(dat)
                                      mol  value
1  O=C1CN(CCCCCl)c2ccc([N+](=O)[O-])cc2N1     29

For each entry beneath this line, provide reported Activity.
1. O=C1CN(CCCCCCl)c2ccc([N+](=O)[O-])cc2N1
2. CN1C(=O)CN(CCc2ccccc2CCl)c2ccc([N+](=O)[O-])cc21

64.5
14.5
